Entry source: the supplement of paper PMC9112550

Test system: Escherichia coli TOP10
test.details: shrunken log2 fold change of peptide-encoding DNA abundance (4.5 h post-induction vs induction); higher = less antimicrobial activity (less host growth inhibition)
recorded.conditions: time post-induction: 4.5 h; library: site-saturation at positions 5, 18, 19, 20
The class of a record is decided solely by its measured shrunken log2 fold change; consult 1 (below -0.1), 2 (-0.1 to below 0.04), 3 (0.04 or more)

macromolecule.sequence | assigned.label
RRIRVRPPRLPRPRPRPQNRPRP | 3

Moving on to the next sequence.
Which bin should I file RRIRYRPPRLPRPRPRPTLNPRP under?
1

----------
Test system: Escherichia coli TOP10
test.details: shrunken log2 fold change of peptide-encoding DNA abundance (4.5 h post-induction vs induction); higher = less antimicrobial activity (less host growth inhibition)
recorded.conditions: time post-induction: 4.5 h; library: site-saturation at positions 5, 18, 19, 20
The class of a record is decided solely by its measured shrunken log2 fold change; consult low group: < -0.01; middle group: ≥ -0.01 and < 0.1; high group: ≥ 0.1

Solved cases (10 shown):
macromolecule.sequence | assigned.label
RRIRVRPPRLPRPRPRPYEHPRP | low group
RRIRTRPPRLPRPRPRPRRAPRP | high group
RRIRLRPPRLPRPRPRPWATPRP | low group
RRIRERPPRLPRPRPRPWHVPRP | middle group
RRIRSRPPRLPRPRPRPSSEPRP | middle group
RRIRRRPPRLPRPRPRPKATPRP | high group
RRIRLRPPRLPRPRPRPSPCPRP | low group
RRIRYRPPRLPRPRPRPGSSPRP | low group
RRIRFRPPRLPRPRPRPKSCPRP | middle group
RRIRQRPPRLPRPRPRPQRSPRP | middle group

Which bin should I file RRIRHRPPRLPRPRPRPCLHPRP under?
low group

Which bin should I file RRIRMRPPRLPRPRPRPLPPPRP under?
high group

Which bin should I file RRIRERPPRLPRPRPRPVKHPRP under?
middle group

Which bin should I file RRIRQRPPRLPRPRPRPGLPPRP under?
high group

Which bin should I file RRIRTRPPRLPRPRPRPVIGPRP under?
high group

----------
shrunken log2 fold change by entry:
Tested on: Escherichia coli TOP10
test.details: shrunken log2 fold change of peptide-encoding DNA abundance (4.5 h post-induction vs induction); higher = less antimicrobial activity (less host growth inhibition)
recorded.conditions: time post-induction: 4.5 h; library: site-saturation at positions 5, 18, 19, 20
No unit in the answer, only the number.

Past entries and their recorded results:
macromolecule.sequence | shrunken log2 fold change
RRIRTRPPRLPRPRPRPITDPRP | 0.177
RRIRHRPPRLPRPRPRPNIGPRP | -0.431
RRIRQRPPRLPRPRPRPIIMPRP | -0.25
RRIRSRPPRLPRPRPRPIQGPRP | -0.127
RRIRCRPPRLPRPRPRPCEAPRP | -0.369

Now consider a different sequence.
I'd like to know its shrunken log2 fold change. The sequence in question is RRIRKRPPRLPRPRPRPDCKPRP
-0.0333

----------
Tested on: Escherichia coli TOP10
test.details: shrunken log2 fold change of peptide-encoding DNA abundance (4.5 h post-induction vs induction); higher = less antimicrobial activity (less host growth inhibition)
recorded.conditions: time post-induction: 4.5 h; library: site-saturation at positions 5, 18, 19, 20
Give Criterion met when the value for shrunken log2 fold change is at least 0.04. Give Criterion not met when it is less.

Solved cases (6 shown):
macromolecule.sequence | assigned.label
RRIRGRPPRLPRPRPRPEKEPRP | Criterion not met
RRIRGRPPRLPRPRPRPWCVPRP | Criterion met
RRIRERPPRLPRPRPRPASRPRP | Criterion not met
RRIRRRPPRLPRPRPRPVPTPRP | Criterion met
RRIRVRPPRLPRPRPRPCHMPRP | Criterion not met
RRIRCRPPRLPRPRPRPWLGPRP | Criterion met

Has RRIRIRPPRLPRPRPRPKPKPRP a recorded shrunken log2 fold change greater than or equal to 0.04?
Criterion met

Has RRIRCRPPRLPRPRPRPVCMPRP a recorded shrunken log2 fold change greater than or equal to 0.04?
Criterion not met

Has RRIRCRPPRLPRPRPRPWTTPRP a recorded shrunken log2 fold change greater than or equal to 0.04?
Criterion not met

Has RRIRYRPPRLPRPRPRPNDFPRP a recorded shrunken log2 fold change greater than or equal to 0.04?
Criterion not met

Has RRIRGRPPRLPRPRPRPKGPPRP a recorded shrunken log2 fold change greater than or equal to 0.04?
Criterion met

Has RRIRCRPPRLPRPRPRPFWVPRP a recorded shrunken log2 fold change greater than or equal to 0.04?
Criterion met

----------
Tested on: Escherichia coli TOP10
test.details: shrunken log2 fold change of peptide-encoding DNA abundance (4.5 h post-induction vs induction); higher = less antimicrobial activity (less host growth inhibition)
recorded.conditions: time post-induction: 4.5 h; library: site-saturation at positions 5, 18, 19, 20
assay.readout: shrunken log2 fold change

Past entries and their recorded results:
macromolecule.sequence | shrunken log2 fold change
RRIRFRPPRLPRPRPRPICFPRP | -0.293
RRIRNRPPRLPRPRPRPKWMPRP | -0.19
RRIRCRPPRLPRPRPRPQDAPRP | 0.0575
RRIRRRPPRLPRPRPRPYIQPRP | -0.603
RRIRRRPPRLPRPRPRPAFPPRP | 0.356
RRIRTRPPRLPRPRPRPFPFPRP | -0.406
RRIRARPPRLPRPRPRPCRMPRP | -0.353
RRIRQRPPRLPRPRPRPNDKPRP | -0.335
RRIRWRPPRLPRPRPRPKSLPRP | -0.0933
RRIRSRPPRLPRPRPRPDGDPRP | -0.197

Now consider a different sequence.
I'd like to know its shrunken log2 fold change. The sequence in question is RRIRQRPPRLPRPRPRPKSHPRP
-0.0261

----------
Tested on: Escherichia coli TOP10
test.details: shrunken log2 fold change of peptide-encoding DNA abundance (4.5 h post-induction vs induction); higher = less antimicrobial activity (less host growth inhibition)
recorded.conditions: time post-induction: 4.5 h; library: site-saturation at positions 5, 18, 19, 20
Give Y when the value for shrunken log2 fold change is at least -0.004. Give N when it is less.

Solved cases (6 shown):
macromolecule.sequence | study.system | assigned.label
RRIRIRPPRLPRPRPRPFTQPRP | Escherichia coli TOP10 | N
RRIRDRPPRLPRPRPRPNYLPRP | Escherichia coli TOP10 | N
RRIRQRPPRLPRPRPRPWCCPRP | Escherichia coli TOP10 | Y
RRIRVRPPRLPRPRPRPEVQPRP | Escherichia coli TOP10 | Y
RRIRWRPPRLPRPRPRPYSGPRP | Escherichia coli TOP10 | N
RRIRNRPPRLPRPRPRPNDPPRP | Escherichia coli TOP10 | Y

Has RRIRYRPPRLPRPRPRPQLYPRP a recorded shrunken log2 fold change greater than or equal to -0.004?
N

Has RRIRDRPPRLPRPRPRPWDIPRP a recorded shrunken log2 fold change greater than or equal to -0.004?
N

Has RRIRQRPPRLPRPRPRPFICPRP a recorded shrunken log2 fold change greater than or equal to -0.004?
N

Has RRIRYRPPRLPRPRPRPHCQPRP a recorded shrunken log2 fold change greater than or equal to -0.004?
N

Has RRIRGRPPRLPRPRPRPVFGPRP a recorded shrunken log2 fold change greater than or equal to -0.004?
Y

Has RRIRSRPPRLPRPRPRPYIGPRP a recorded shrunken log2 fold change greater than or equal to -0.004?
N

Has RRIRFRPPRLPRPRPRPWGIPRP a recorded shrunken log2 fold change greater than or equal to -0.004?
N

Has RRIRDRPPRLPRPRPRPKWGPRP a recorded shrunken log2 fold change greater than or equal to -0.004?
Y

Has RRIRNRPPRLPRPRPRPFCRPRP a recorded shrunken log2 fold change greater than or equal to -0.004?
N

----------
System: Escherichia coli TOP10;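 note: peptides expressed intracellularly from a pBAD plasmid library in pooled LB shake-flask culture, induced with 0.3% L-arabinose, DNA abundance read by NGS, three biological replicates, DESeq2 with apeglm shrinkage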
test.details: shrunken log2 fold change of peptide-encoding DNA abundance (4.5 h post-induction vs induction); higher = less antimicrobial activity (less host growth inhibition)
recorded.conditions: time post-induction: 4.5 h; library: site-saturation at positions 5, 18, 19, 20
shrunken log2 fold change by entry:
No unit in the answer, only the number.

Past entries and their recorded results:
macromolecule.sequence | reported.measurement
RRIRNRPPRLPRPRPRPWCDPRP | -0.365
RRIRWRPPRLPRPRPRPVNQPRP | 0.0575
RRIRVRPPRLPRPRPRPCLLPRP | -0.072
RRIRDRPPRLPRPRPRPTCLPRP | 0.653
RRIRIRPPRLPRPRPRPGFDPRP | 0.027

I'd like to know its shrunken log2 fold change. The sequence in question is RRIRSRPPRLPRPRPRPQQLPRP
-0.0917

I'd like to know its shrunken log2 fold change. The sequence in question is RRIRWRPPRLPRPRPRPMPQPRP
0.178

I'd like to know its shrunken log2 fold change. The sequence in question is RRIRQRPPRLPRPRPRPGQKPRP
-0.00973
